Assay: Study 1: single-dose pharmacokinetics in mild or moderate hepatic impairment and matched healthy controls
Type: in vivo, human
Settings: both sexes, human, plasma, po, 20 mg, Mild Impairment n = 8; vilazodone 20 mg single oral dose; read-out: Tmax (mean)
Description: The pharmacokinetics, tolerability, and safety of vilazodone were investigated in two separate trials involving participants with hepatic impairment, compared with healthy controls. An Open-label, parallel-group, single-dose pharmacokinetic studies, a single, oral dose of vilazodone (20 mg with increased hardness) was administered to participants with mild, moderate, or severe hepatic impairment or individually matched controls. […] Plasma samples were analyzed using validated LC/MS/MS methods. […]
MEASURED_METRIC: Tmax (h)
Write the value in h as a bare number.

Sample Cl.N#Cc1ccc2[nH]cc(CCCCN3CCN(c4ccc5oc(C(N)=O)cc5c4)CC3)c2c1 [Vilazodone] — what was its Tmax?
4.6

* * *

system: plasma proteins; experiment: Vilazodone protein binding by equilibrium dialysis (Studies 1 and 2); assay type: in vitro ADME; settings: both sexes, human, plasma of study participants, participants with mild or moderate hepatic impairment; read-out: mean percent free fraction in plasma
MEASURED_METRIC: fraction unbound
Returns: the value as a bare number; no unit string appended.

Param readout = fraction unbound; param system = plasma proteins; param query = Cl.N#Cc1ccc2[nH]cc(CCCCN3CCN(c4ccc5oc(C(N)=O)cc5c4)CC3)c2c1 [Vilazodone, hydrochloride] ; response: value
0.016

* * *

assay: Study 1: single-dose pharmacokinetics in mild or moderate hepatic impairment and matched healthy controls; format: in vivo, human; conditions: both sexes, human, plasma, po, 20 mg, Moderate Impairment n = 8; vilazodone 20 mg single oral dose
MEASURED_METRIC: AUC(0-t) (ng·h/mL)
Kindly answer with a numeric value in ng·h/mL, unit omitted.

// AUC(0-t) lookup, key: Cl.N#Cc1ccc2[nH]cc(CCCCN3CCN(c4ccc5oc(C(N)=O)cc5c4)CC3)c2c1
683
